- ASSAY SUMMARY: amyloid nucleation score (Sup35N fusion, yeast selection) (log enrichment); library NNK1; higher = more nucleation; inactive = no reads after selection;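 further: zero at mode of non-aggregating sequences after 7 days selection at 30°C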
Entries annotated with measured amyloid nucleation score

| SUBSTANCE | amyloid nucleation score |
| --- | --- |
| VDIKFFMGLAFMWRYSSTAD | -0.063 |
| VIAFCSRPDC | 0.425 |
| GTDYVEGCCSLNFRCCCVNG | 5.12 |
| RLNDNRYSYVVVS | -0.127 |
| LNQPWYIRIQANIDFNR | 4.47 |
| YLISYRLTPSYASVNDCFPD | 0.203 |
| CVFRSYWVCLWSDNNGDVR | 8.32 |
| QAELYPDQNRGCVGLVVPAD | -0.544 |
| DDRVSQLAWGLCAVSYARLE | 0.681 |
| PYWTVYGELL | 0.116 |
| HFVRFRRAMSRHGRVAST | -0.979 |
| SSGFTLTSVRMGEMSTANNG | 1.1 |
| NTREVSVRETDCCKLTCMIA | 7.74 |
| LYLIGTILNLIGY | 5.75 |
| NNFGFET | 0.671 |
| DNNTVITIEQC | 0.286 |
| GHDVWKANSLTRVKLREYYG | 0.546 |
| MYASELSLKPATYSWK | -0.646 |
| FYRSLVVNM | -0.081 |
| ATGSMGQSSSTGDASKLASF | 1.3 |
| VPVVRYYFTQFMDKYADDMF | 1.36 |
| MRRPVKCYGVVTL | -0.299 |
| SALNSSRGKFICSRRCHGEE | 0.078 |
| RFVNKGGT | -0.325 |
| RKRVCSGLRSFWSFFRCLRV | -0.711 |
| LVWISVL | 0.163 |
| LGHGGVR | 0.566 |
| LNPLVLSCSGEIDSMFNV | 1.11 |
| KESLLLTQCGYYMGSAKMVW | -1.03 |
| CVWFFLFPVQAITLFDLESV | -0.033 |
| PSIHTFCTAL | 0.318 |
| LCSLTGLGYAMHVYVSLDVQ | 0.086 |
| GTDVQEWLAYCCAIIYAF | 0.332 |
| WHLSMRLDLPT | 0.363 |
| TALSFRYVYLI | -0.612 |
| KSYSMMMSMMGNRMWVKRLV | -0.02 |
| KGVCMTRHD | -0.136 |
| DLAWWMSCAHFMSMTRGLQR | 0.595 |
| ESLFPVCGEMTVTCPLSPTE | 0.423 |
| RNNEDGRLKDRRRGLSHGPC | -0.763 |
| EYICLLTDSCNDTVLFSCPR | -0.583 |
| DAVSGGVFNCVLFNKVLSLM | -0.597 |
| VFRALKRVISRTYCMISFLK | 0.458 |
| FYLRSSTNEPRENNVNLALY | -0.345 |
| GTTDIFFLLILFFQVVN | 1.14 |
| LGRSGKMTT | -0.032 |
| ASFGGINLPL | -0.236 |
| VYLSRHTNRG | 1.53 |
| HRRLRMRT | -0.469 |
| KTWVYSRRRRCVRPGCCGDV | 3.3 |
| WWVGCRACLPWDASSGKLLG | 0.139 |
| FSDCCLSAKRA | -0.46 |
| VMGNTDVVSDVSWVKCQKLK | 0.328 |
| VGTFTGV | -0.189 |
| YLSIKVITQGDWKCQVRVLW | -0.332 |
| GFYSLHTALARIPHEHAVFF | -0.018 |
| EDSMNNL | -0.127 |
| FWLILFIVFIKYMNILFRTC | 1.08 |

The reported measurements were obtained from the supplement of paper PMC12042874.
